Concentration by entry:
test system: Rattus norvegicus; assay: Concentration of compound in rat blood after intravenous injection of 20 mg/kg benzyl-penicillin after 20 min; assay type: functional, organism-based; parameters: dose 20 mg/kg
MEASURED ATTRIBUTE: Concentration

- CC1(C)S[C@@H]2[C@H](NC(=O)Cc3ccccc3)C(=O)N2[C@H]1C(=O)O: 2.8 µg/mL
- CN1C=CCC(C(=O)OCCOC(=O)C2N3C(=O)C(NC(=O)Cc4ccccc4)C3SC2(C)C)=C1 (centres undefined): 1.9 µg/mL
- CN1C=CCC(C(=O)NCCOC(=O)C2N3C(=O)C(NC(=O)Cc4ccccc4)C3SC2(C)C)=C1 (centres undefined): 0.8 µg/mL
- CN1C=c2ccccc2=C(C(=O)NCCOC(=O)C2N3C(=O)C(NC(=O)Cc4ccccc4)C3SC2(C)C)C1 (centres undefined): 0.2 µg/mL

----------
test: Half-life for disappearance of compound from rabbit whole blood; format: ADME, organism-based, Oryctolagus cuniculus
MEASURED ATTRIBUTE: half-life (min)

• CN1C=CCC(C(=O)OCOC(=O)C2N3C(=O)C(NC(=O)Cc4ccccc4)C3SC2(C)C)=C1 (stereo not given) = 0.8
• CN1C=CCC(C(=O)OCCOC(=O)C2N3C(=O)C(NC(=O)Cc4ccccc4)C3SC2(C)C)=C1 (stereo not given) = 0.8
• C[n+]1cccc(C(=O)OCCOC(=O)C2N3C(=O)C(NC(=O)Cc4ccccc4)C3SC2(C)C)c1.[I-] (stereo not given) = 2
• CN1C=CCC(C(=O)NCCOC(=O)C2N3C(=O)C(NC(=O)Cc4ccccc4)C3SC2(C)C)=C1 (stereo not given) = 1.3
• C[n+]1cccc(C(=O)NCCOC(=O)C2N3C(=O)C(NC(=O)Cc4ccccc4)C3SC2(C)C)c1.[I-] (stereo not given) = 3

----------
test system: Rattus norvegicus; experiment: Concentration of compound in rat blood after intravenous injection of 20 mg/kg benzyl-penicillin after 3 min; format: functional, organism-based; design: dose 20 mg/kg
Concentration by entry:
MEASURED ATTRIBUTE: Concentration

- CN1C=CCC(C(=O)OCCOC(=O)C2N3C(=O)C(NC(=O)Cc4ccccc4)C3SC2(C)C)=C1 (centres undefined): 9 µg/mL
- CC1(C)S[C@@H]2[C@H](NC(=O)Cc3ccccc3)C(=O)N2[C@H]1C(=O)O: 25.2 µg/mL
- CN1C=CCC(C(=O)NCCOC(=O)C2N3C(=O)C(NC(=O)Cc4ccccc4)C3SC2(C)C)=C1 (centres undefined): 7.3 µg/mL
- CN1C=c2ccccc2=C(C(=O)NCCOC(=O)C2N3C(=O)C(NC(=O)Cc4ccccc4)C3SC2(C)C)C1 (centres undefined): 3 µg/mL

----------
test: Half-life for disappearance of compound from dog whole blood; type: ADME, organism-based, Canis lupus familiaris
MEASURED ATTRIBUTE: half-life (min)

• C[n+]1cc(C(=O)NCCOC(=O)C2N3C(=O)C(NC(=O)Cc4ccccc4)C3SC2(C)C)c2ccccc2c1.[I-] (centres undefined) = 13.5
• CN1C=CCC(C(=O)NCCOC(=O)C2N3C(=O)C(NC(=O)Cc4ccccc4)C3SC2(C)C)=C1 (centres undefined) = 5.7
• CN1C=CCC(C(=O)OCCOC(=O)C2N3C(=O)C(NC(=O)Cc4ccccc4)C3SC2(C)C)=C1 (centres undefined) = 4.1
• CN1C=c2ccccc2=C(C(=O)NCCOC(=O)C2N3C(=O)C(NC(=O)Cc4ccccc4)C3SC2(C)C)C1 (centres undefined) = 11.4
